The reported measurements were obtained from the nanobody polyreactivity screen of Harvey et al. (2022).

- assay_comment: yeast display, Sf9 membrane polyspecificity reagent, FACS + sequencing; frameworks hold sequencing errors
assay_endpoint: polyreactivity (PSR sort gate)

Worked cases, answers included:
biosequence	measured_result
QVQLVESGGGLVQAGGSLRLSCAASGSIFSYNGKGWYRQAPGKERELVATISASSVTTYYADSVKGRFTISRDNAKNTVYLQMNSLKPEDTAVYYCARDAYSVYYYVFLHWEYDYWGQGTQVTVSS	high polyreactivity
QVQLVESGGGLVQAGGSLRLSCAASGLTFPRYTMGWYRQPPGKERELVAAISSSTGTTNYADSVKGRFTISRDNAKNTVYLQMNSLKPEDTAVYYCAKRVSSWLGFHLDYWGQGTQVTVSS	low polyreactivity
QVQLVESGGALVQAGGSLRLSCAYTGLIFGLYAMGWYTQAPGQERDFVAAITSVTSTYYADSVKGRFTISRDNAKNTFFLQMISLKPEDTAVYYCAADSPVDYLYALYLSVRDDYWGHGTQVTVSS	low polyreactivity
QVQLVESGGGLVQARGSLRLSCEASGFTFGSNTMACYRQAPGKERELVAAITRRGGSTNYADSVKGRFTISRDNAKNTVYLQMNSLKPDDTAVYYCARDYRSYTVSYDTSYDYWGQGTQVTVSS	high polyreactivity

Consider QVQLVESGVGLVQAGGSLRLSCAASGRIFAGYAMGWYRQAPGKERELVATISSGGSTYYADSVKGRFTISRDNAKNTVYLQMNSLKPEDTAVYYCAAEYGTRQYSSYYKLFNYWGQGTQVTVSS . Its measured polyreactivity (PSR sort gate) is low polyreactivity
